Tested on: 633275-114-R-J1-PDC complex spheroids, viability
TEST_PROTOCOL: Anticancer human tumor 633275-114-R-J1-PDC patient-derived endometrial adenocarcinoma cell line growth inhibition [GQUAD]
MEASUREMENT_CONDITIONS: second compound 10 µM; first compound 0.1 µM; stronger effect = lower value
Text: DNA G-quadruplex Stabilizer Agents in Combinations in Complex Spheroids A high-throughput screen of multi-cell type tumor spheroids was designed to identify active combinations of DNA G-quadruplex stabilizer agents and targeted small molecules. […] Compounds. […] If the clinical Cmax for an agent had not been determined, the highest concentration tested was 10 microM. […]
OBSERVED_PROPERTY: viability, T/C (%)
Value expressed in %; do not type the unit.

Solved entries (count: 2):
>>> observed("CC1COCCN1c1cc(C2(S(C)(=N)=O)CC2)nc(-c2ccnc3[nH]ccc23)n1 (stereo not drawn) + Cc1[nH]c2ccc(F)cc2c1-c1nc2c3cccnc3c3ncccc3c2[nH]1")
71.5
>>> observed("CC(C)n1c(=O)n(C)c2cnc3cc(F)c(-c4ccc(OCCCN5CCCCC5)nc4)cc3c21 + Cc1cnc(CNC(=O)c2c(=O)c3ccc(N4CCCN(C)CC4)nc3n3c2sc2ccccc23)cn1")
32

Find the measured viability, T/C of CCCS(=O)(=O)Nc1ccc(F)c(C(=O)c2c[nH]c3ncc(-c4ccc(Cl)cc4)cc23)c1F + CN(C)c1ccc(Nc2c3ccc(NC(=O)CCN4CCCC4)cc3nc3cc(NC(=O)CCN4CCCC4)ccc23)cc1 with 633275-114-R-J1-PDC complex spheroids, viability as test system. 31.8

###

System: 633275-114-R-J1-PDC complex spheroids, viability
TEST_PROTOCOL: Anticancer human tumor 633275-114-R-J1-PDC cell line growth inhibition [GQUAD];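 also: spheroids exposed to the agents for seven days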;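 as to viability, T/C: percent of DMSO vehicle control viability which is 100%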
MEASUREMENT_CONDITIONS: second compound 3.16 µM; first compound 1 µM; stronger effect = lower value
OBSERVED_PROPERTY: viability, T/C (%)
Value expressed in %; do not type the unit.

Solved entries (count: 5):
>>> observed("O=C(NO)c1cnc(N2CCN(S(=O)(=O)c3ccc4ccccc4c3)CC2)nc1 + Cc1cnc(CNC(=O)c2c(=O)c3ccc(N4CCCN(C)CC4)nc3n3c2sc2ccccc23)cn1")
0.25
>>> observed("C=CCn1c(=O)c2cnc(Nc3ccc(N4CCN(C)CC4)cc3)nc2n1-c1cccc(C(C)(C)O)n1 + Cc1[nH]c2ccc(F)cc2c1-c1nc2c3cccnc3c3ncccc3c2[nH]1")
29.8
>>> observed("CCCS(=O)(=O)Nc1ccc(F)c(C(=O)c2c[nH]c3ncc(-c4ccc(Cl)cc4)cc23)c1F + CN(C)c1ccc(Nc2c3ccc(NC(=O)CCN4CCCC4)cc3nc3cc(NC(=O)CCN4CCCC4)ccc23)cc1")
94.3
>>> observed("CCCS(=O)(=O)Nc1ccc(F)c(C(=O)c2c[nH]c3ncc(-c4ccc(Cl)cc4)cc23)c1F + Cc1cnc(CNC(=O)c2c(=O)c3ccc(N4CCCN(C)CC4)nc3n3c2sc2ccccc23)cn1")
40.3
>>> observed("CC1COCCN1c1cc(-c2ccnn2C)c2ccnc(-c3ccn[nH]3)c2n1 (stereo unspecified) + Cc1[nH]c2ccc(F)cc2c1-c1nc2c3cccnc3c3ncccc3c2[nH]1")
26.8

Find the measured viability, T/C of O=c1[nH]cc(F)c(=O)[nH]1 + Cc1[nH]c2ccc(F)cc2c1-c1nc2c3cccnc3c3ncccc3c2[nH]1 with 633275-114-R-J1-PDC complex spheroids, viability as test system. 73.2

Find the measured viability, T/C of CC(C)(O)C1CCC(Nc2ccc3ncc(-c4cccc(C(F)(F)F)c4)n3n2)CC1 (stereo unspecified) + Cc1cnc(CNC(=O)c2c(=O)c3ccc(N4CCCN(C)CC4)nc3n3c2sc2ccccc23)cn1 with 633275-114-R-J1-PDC complex spheroids, viability as test system. 28

Find the measured viability, T/C of CC1COCCN1c1cc(C2(O)CC3CCC(C2)O3)c2cnn(-c3ccn[nH]3)c2n1 (stereo unspecified) + Cc1cnc(CNC(=O)c2c(=O)c3ccc(N4CCCN(C)CC4)nc3n3c2sc2ccccc23)cn1 with 633275-114-R-J1-PDC complex spheroids, viability as test system. 12.9

Find the measured viability, T/C of CC(C)n1c(=O)n(C)c2cnc3cc(F)c(-c4ccc(OCCCN5CCCCC5)nc4)cc3c21 + Cc1[nH]c2ccc(F)cc2c1-c1nc2c3cccnc3c3ncccc3c2[nH]1 with 633275-114-R-J1-PDC complex spheroids, viability as test system. 72.2

Find the measured viability, T/C of CC(=O)O[C@H]1C(=O)[C@@]2(C)[C@H]([C@H](OC(=O)c3ccccc3)[C@]3(O)C[C@H](OC(=O)[C@H](O)[C@@H](NC(=O)c4ccccc4)c4ccccc4)C(C)=C1C3(C)C)[C@]1(OC(C)=O)CO[C@@H]1C[C@@H]2O + Cc1cnc(CNC(=O)c2c(=O)c3ccc(N4CCCN(C)CC4)nc3n3c2sc2ccccc23)cn1 with 633275-114-R-J1-PDC complex spheroids, viability as test system. 39.7

Find the measured viability, T/C of O=c1[nH]cc(F)c(=O)[nH]1 + CN(C)c1ccc(Nc2c3ccc(NC(=O)CCN4CCCC4)cc3nc3cc(NC(=O)CCN4CCCC4)ccc23)cc1 with 633275-114-R-J1-PDC complex spheroids, viability as test system. 74

###

Tested on: 633275-114-R-J1-PDC complex spheroids, viability
TEST_PROTOCOL: Anticancer human tumor 633275-114-R-J1-PDC cell line growth inhibition [GQUAD];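 also: spheroids exposed to the agents for seven days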
MEASUREMENT_CONDITIONS: curve of first compound; second compound 1 µM
OBSERVED_PROPERTY: log10(IC50) (log10 of the value in nM)
Recall that a logarithmic scale is used here: each number is log10 of IC50 in nM.

Solved entries (count: 4):
>>> observed("COc1ccc([C@@H](O)c2cc(-c3ncnc4cc(N5CCOCC5)ccc34)c(F)cc2Cl)nn1 + CN(C)c1ccc(Nc2c3ccc(NC(=O)CCN4CCCC4)cc3nc3cc(NC(=O)CCN4CCCC4)ccc23)cc1")
3.23
>>> observed("CC1COCCN1c1cc(-c2ccnn2C)c2ccnc(-c3ccn[nH]3)c2n1 (stereo unspecified) + CN(C)c1ccc(Nc2c3ccc(NC(=O)CCN4CCCC4)cc3nc3cc(NC(=O)CCN4CCCC4)ccc23)cc1")
2.16
>>> observed("CC[C@@]1(O)C(=O)OCc2c1cc1n(c2=O)Cc2cc3c(CN(C)C)c(O)ccc3nc2-1 + CN(C)c1ccc(Nc2c3ccc(NC(=O)CCN4CCCC4)cc3nc3cc(NC(=O)CCN4CCCC4)ccc23)cc1")
1.76
>>> observed("CC1COCCN1c1cc(-c2ccnn2C)c2ccnc(-c3ccn[nH]3)c2n1 (stereo unspecified) + Cc1[nH]c2ccc(F)cc2c1-c1nc2c3cccnc3c3ncccc3c2[nH]1")
2.06

Assign log10(IC50) to the following record: COc1cc(C2c3cc4c(cc3C(OC3OC5COC(C)OC5C(O)C3O)C3COC(=O)C23)OCO4)cc(OC)c1O (stereo unspecified) + Cc1[nH]c2ccc(F)cc2c1-c1nc2c3cccnc3c3ncccc3c2[nH]1 2.55

Assign log10(IC50) to the following record: CC(C)(O)C1CCC(Nc2ccc3ncc(-c4cccc(C(F)(F)F)c4)n3n2)CC1 (stereo unspecified) + Cc1[nH]c2ccc(F)cc2c1-c1nc2c3cccnc3c3ncccc3c2[nH]1 3.28

###

Tested on: 633275-114-R-J1-PDC complex spheroids, viability
TEST_PROTOCOL: Anticancer human tumor 633275-114-R-J1-PDC cell line growth inhibition [GQUAD];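 also: spheroids exposed to the agents for seven days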;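 as to viability, T/C: percent of DMSO vehicle control viability which is 100%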
MEASUREMENT_CONDITIONS: second compound 1 µM; first compound 10 µM; stronger effect = lower value
Entries and their measured viability, T/C follow.
Value expressed in %; do not type the unit.

>>> observed("C#Cc1c(F)ccc2cc(O)cc(-c3ncc4c(N5CC6CCC(C5)N6)nc(OCC56CCCN5CC(F)C6)nc4c3F)c12 (stereo not drawn) + CN(C)c1ccc(Nc2c3ccc(NC(=O)CCN4CCCC4)cc3nc3cc(NC(=O)CCN4CCCC4)ccc23)cc1")
54.9
>>> observed("Cc1cccc(N(C)C(=O)C2C(O)CCN2c2nc(C)cc(C(F)(F)F)c2C#N)c1 (stereo not drawn) + Cc1[nH]c2ccc(F)cc2c1-c1nc2c3cccnc3c3ncccc3c2[nH]1")
92.9

Assign viability, T/C to the following record: C=CCn1c(=O)c2cnc(Nc3ccc(N4CCN(C)CC4)cc3)nc2n1-c1cccc(C(C)(C)O)n1 + Cc1[nH]c2ccc(F)cc2c1-c1nc2c3cccnc3c3ncccc3c2[nH]1 15.6

###

System: 633275-114-R-J1-PDC complex spheroids, viability
TEST_PROTOCOL: Anticancer human tumor 633275-114-R-J1-PDC cell line growth inhibition [GQUAD];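 also: spheroids exposed to the agents for seven days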;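 as to viability, T/C: percent of DMSO vehicle control viability which is 100%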
MEASUREMENT_CONDITIONS: second compound 10 µM; first compound 3.16 µM; stronger effect = lower value
OBSERVED_PROPERTY: viability, T/C (%)
Value expressed in %; do not type the unit.

>>> observed("Nc1ccn(C2OC(CO)C(O)C2(F)F)c(=O)n1 (configuration not stated) + Cc1cnc(CNC(=O)c2c(=O)c3ccc(N4CCCN(C)CC4)nc3n3c2sc2ccccc23)cn1")
20.7
>>> observed("O=c1[nH]cc(F)c(=O)[nH]1 + Cc1cnc(CNC(=O)c2c(=O)c3ccc(N4CCCN(C)CC4)nc3n3c2sc2ccccc23)cn1")
30.9
>>> observed("CC(C)(O)C1CCC(Nc2ccc3ncc(-c4cccc(C(F)(F)F)c4)n3n2)CC1 (configuration not stated) + Cc1[nH]c2ccc(F)cc2c1-c1nc2c3cccnc3c3ncccc3c2[nH]1")
24.1
>>> observed("C#Cc1c(F)ccc2cc(O)cc(-c3ncc4c(N5CC6CCC(C5)N6)nc(OCC56CCCN5CC(F)C6)nc4c3F)c12 (configuration not stated) + Cc1[nH]c2ccc(F)cc2c1-c1nc2c3cccnc3c3ncccc3c2[nH]1")
52.8
>>> observed("CC1COCCN1c1cc(-c2ccnn2C)c2ccnc(-c3ccn[nH]3)c2n1 (configuration not stated) + CN(C)c1ccc(Nc2c3ccc(NC(=O)CCN4CCCC4)cc3nc3cc(NC(=O)CCN4CCCC4)ccc23)cc1")
10.4

Assign viability, T/C to the following record: CC(C)(O)C1CCC(Nc2ccc3ncc(-c4cccc(C(F)(F)F)c4)n3n2)CC1 (configuration not stated) + Cc1cnc(CNC(=O)c2c(=O)c3ccc(N4CCCN(C)CC4)nc3n3c2sc2ccccc23)cn1 0.2

Assign viability, T/C to the following record: C=CC(=O)N1CCN(c2nc(=O)n(-c3c(C)ccnc3C(C)C)c3nc(-c4c(O)cccc4F)c(F)cc23)C(C)C1 (configuration not stated) + Cc1[nH]c2ccc(F)cc2c1-c1nc2c3cccnc3c3ncccc3c2[nH]1 71.6

Assign viability, T/C to the following record: COc1ccc([C@@H](O)c2cc(-c3ncnc4cc(N5CCOCC5)ccc34)c(F)cc2Cl)nn1 + CN(C)c1ccc(Nc2c3ccc(NC(=O)CCN4CCCC4)cc3nc3cc(NC(=O)CCN4CCCC4)ccc23)cc1 11.8

Assign viability, T/C to the following record: CC(C)n1c(=O)n(C)c2cnc3cc(F)c(-c4ccc(OCCCN5CCCCC5)nc4)cc3c21 + CN(C)c1ccc(Nc2c3ccc(NC(=O)CCN4CCCC4)cc3nc3cc(NC(=O)CCN4CCCC4)ccc23)cc1 17.9

Assign viability, T/C to the following record: C=CCn1c(=O)c2cnc(Nc3ccc(N4CCN(C)CC4)cc3)nc2n1-c1cccc(C(C)(C)O)n1 + Cc1cnc(CNC(=O)c2c(=O)c3ccc(N4CCCN(C)CC4)nc3n3c2sc2ccccc23)cn1 22.4

Assign viability, T/C to the following record: C#Cc1c(F)ccc2cc(O)cc(-c3ncc4c(N5CC6CCC(C5)N6)nc(OCC56CCCN5CC(F)C6)nc4c3F)c12 (configuration not stated) + Cc1cnc(CNC(=O)c2c(=O)c3ccc(N4CCCN(C)CC4)nc3n3c2sc2ccccc23)cn1 23.7

Assign viability, T/C to the following record: CC(=O)O[C@H]1C(=O)[C@@]2(C)[C@H]([C@H](OC(=O)c3ccccc3)[C@]3(O)C[C@H](OC(=O)[C@H](O)[C@@H](NC(=O)c4ccccc4)c4ccccc4)C(C)=C1C3(C)C)[C@]1(OC(C)=O)CO[C@@H]1C[C@@H]2O + Cc1[nH]c2ccc(F)cc2c1-c1nc2c3cccnc3c3ncccc3c2[nH]1 18.4

Assign viability, T/C to the following record: CC1COCCN1c1cc(C2(S(C)(=N)=O)CC2)nc(-c2ccnc3[nH]ccc23)n1 (configuration not stated) + Cc1[nH]c2ccc(F)cc2c1-c1nc2c3cccnc3c3ncccc3c2[nH]1 37.6

Assign viability, T/C to the following record: O=C(c1cc(Cc2n[nH]c(=O)c3ccccc23)ccc1F)N1CCN(C(=O)C2CC2)CC1 + Cc1[nH]c2ccc(F)cc2c1-c1nc2c3cccnc3c3ncccc3c2[nH]1 61.1

Assign viability, T/C to the following record: CC(=O)O[C@H]1C(=O)[C@@]2(C)[C@H]([C@H](OC(=O)c3ccccc3)[C@]3(O)C[C@H](OC(=O)[C@H](O)[C@@H](NC(=O)c4ccccc4)c4ccccc4)C(C)=C1C3(C)C)[C@]1(OC(C)=O)CO[C@@H]1C[C@@H]2O + Cc1cnc(CNC(=O)c2c(=O)c3ccc(N4CCCN(C)CC4)nc3n3c2sc2ccccc23)cn1 32.4

Assign viability, T/C to the following record: CC1COCCN1c1cc(C2(O)CC3CCC(C2)O3)c2cnn(-c3ccn[nH]3)c2n1 (configuration not stated) + Cc1cnc(CNC(=O)c2c(=O)c3ccc(N4CCCN(C)CC4)nc3n3c2sc2ccccc23)cn1 10.2

Assign viability, T/C to the following record: COc1cccc2c1C(=O)c1c(O)c3c(c(O)c1C2=O)CC(O)(C(=O)CO)CC3OC1CC(N)C(O)C(C)O1 (configuration not stated) + Cc1cnc(CNC(=O)c2c(=O)c3ccc(N4CCCN(C)CC4)nc3n3c2sc2ccccc23)cn1 0.19

Where do the numbers come from? From PubChem BioAssay AID2060505.
